Source listed as ChEMBL document CHEMBL1128132.

Target chain: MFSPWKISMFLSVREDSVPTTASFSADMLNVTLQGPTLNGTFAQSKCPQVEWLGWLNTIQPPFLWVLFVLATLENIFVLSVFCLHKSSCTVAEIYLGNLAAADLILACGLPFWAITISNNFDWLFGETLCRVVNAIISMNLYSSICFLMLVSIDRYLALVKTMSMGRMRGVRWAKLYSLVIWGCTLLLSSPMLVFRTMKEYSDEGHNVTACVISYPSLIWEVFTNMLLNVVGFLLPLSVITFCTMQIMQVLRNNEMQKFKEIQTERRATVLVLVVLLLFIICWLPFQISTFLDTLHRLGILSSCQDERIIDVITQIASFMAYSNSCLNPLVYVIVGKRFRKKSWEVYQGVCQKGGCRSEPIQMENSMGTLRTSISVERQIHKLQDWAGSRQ
OBSERVABLE: pKi
Please note pKi is a logarithmic value: minus log10 of concentration in mol/L. Answer with that number alone.

Which pKi value is on record for CCCC[P+](CCCC)(CCCC)Cc1ccc(NC(=O)C2Cc3ccccc3CN2C(=O)CCCc2ccccc2)cc1 (stereo unspecified) ? 5.00

----------
# MEASURED TARGET: B2 bradykinin receptor (Homo sapiens)
# Sequence (whole entry): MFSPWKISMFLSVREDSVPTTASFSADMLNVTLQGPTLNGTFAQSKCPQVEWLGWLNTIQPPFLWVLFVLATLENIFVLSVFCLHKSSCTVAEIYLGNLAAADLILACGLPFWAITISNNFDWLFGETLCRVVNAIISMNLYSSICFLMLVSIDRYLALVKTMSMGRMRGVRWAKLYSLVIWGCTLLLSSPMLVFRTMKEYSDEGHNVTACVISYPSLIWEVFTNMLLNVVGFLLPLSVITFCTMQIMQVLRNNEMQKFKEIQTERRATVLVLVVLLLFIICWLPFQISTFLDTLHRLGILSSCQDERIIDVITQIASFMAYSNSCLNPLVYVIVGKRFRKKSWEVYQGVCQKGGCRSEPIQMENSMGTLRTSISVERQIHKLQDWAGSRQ
# PROCEDURE DETAILS: Tested for percent inhibition of binding affinity against Bradykinin receptor B2 at 10 uM concentration
Please note: Yes applies when inhibition is 30% or greater, and No applies otherwise.

Observe how each entry below is paired with its result.
COMPOUND | CLASS
CCCC[PH](CCCC)(CCCC)Cc1ccc(NC(=O)C2Cc3ccccc3CN2C(=O)[C@@H](N)CCc2ccccc2)cc1 (single isomer, unassigned; diastereomer 1) | No
CCCC[P+](CCCC)(CCCC)Cc1ccc(NC(=O)C2Cc3ccccc3CN2C(=O)C(CCc2ccccc2)NC(=O)OC(C)(C)C)cc1 (stereo unspecified) | Yes
CCCC[P+](CCCC)(CCCC)Cc1ccc(NC(=O)C2Cc3ccccc3CN2C(=O)CCCc2ccccc2)cc1 (stereo unspecified) | Yes

Does CCCC[PH](CCCC)(CCCC)Cc1ccc(NC(=O)C2Cc3ccccc3CN2C(=O)CN)cc1 (stereo unspecified) have a reported inhibition of at least 30%? Yes

Does the compound CCCC[PH](CCCC)(CCCC)Cc1ccc(NC(=O)C2Cc3ccccc3CN2C(=O)[C@H](CCc2ccccc2)N/C(=N/C2CCCCC2)NC2CCCCC2)cc1 (single isomer, unassigned; diastereomer 1) have recorded inhibition that is 30% or more? Yes

Decide: is the reported value of inhibition for CCCC[PH](CCCC)(CCCC)Cc1ccc(NC(=O)C2Cc3ccccc3CN2C(=O)[C@@H](N)CCc2ccccc2)cc1 (single isomer, unassigned; diastereomer 2) equal to or greater than 30%? No

Could you tell me if the measured inhibition of CCCC[PH](CCCC)(CCCC)Cc1ccc(NC(=O)C2Cc3ccccc3CN2/C(=N/C2CCCCC2)NC2CCCCC2)cc1 (stereo unspecified) reaches 30% or more? Yes

# bool: inhibition of CCCC[P+](CCCC)(CCCC)Cc1ccc(NC(=O)C2Cc3ccccc3CN2C(=O)CNC(=O)OC(C)(C)C)cc1 (stereo unspecified) >= 30% No
